The measured values listed here are drawn from the supplement of paper PMC10724198.

protein stability index by entry:
System: Saccharomyces cerevisiae
Test: protein stability index of tFT-peptide fusion (C-terminal peptide) (PSI (0-1 scale)); higher = more stable (slower turnover)
Conditions: genetic background: doa10 deletion; temperature: 30 C
Note: the reply should be a number with no unit written.

Below, 4 sequences whose answers are already recorded.
>  <entrySequence>
IVLCVFTVDSDF

>  <targetEntity>
Saccharomyces cerevisiae

>  <protein stability index>
0.266

$$$$
>  <entrySequence>
NHKTIRIQNKSI

>  <targetEntity>
Saccharomyces cerevisiae

>  <protein stability index>
0.146

$$$$
>  <entrySequence>
VVATLRCLRCSV

>  <targetEntity>
Saccharomyces cerevisiae

>  <protein stability index>
0.236

$$$$
>  <entrySequence>
VGRVIVIVVAGV

>  <targetEntity>
Saccharomyces cerevisiae;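 further: PSI is a weighted mean of sequencing reads over stability bins, variants kept only with over 10 reads, mCherry proximal and sfGFP distal, peptide attached via GGGS linker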

>  <protein stability index>
0.236

$$$$

-- ask What value of protein stability index has been recorded for this entry: RVHFLIVFLCRF
-- reply 0.398
